Property: protein stability index; scope: individual sequences
assayName: protein stability index of a GFP-peptide fusion (GPS, HEK-293T) (PSI 1-6); higher = more stable;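 further: 24-mer peptide tiles fused after GFP, lentivirally expressed, FACS-sorted into six equal bins by GFP/DsRed ratio, decoded by Illumina sequencing, PSI is the read-weighted mean bin number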
experimentalConditions: treatment: MLN4924 1 uM, 8 h; c terminus: a fixed tail appended
Enter the number alone.

Give the measured protein stability index of RDDLDRLGVFLDYEAGVLAFYDVT [TRIM14] .
2.06

Would you mind telling me what protein stability index value was observed for VDNHFNLLTTSPVFPHYIEKPLGR [TRIM43] ?
2.96

Fill in: protein stability index of RWDMADNEQVLTTEHEKKQKLETD [YJU2B] is ___
5.37

Which protein stability index value belongs to FLWGPRALIETSYVKVLHHMVKIS [MAGEA6] ?
2.59

Which protein stability index reading was recorded for the sequence RLCGGKGGFGSMLRALGAQIEKTT [SDE2] ?
2.55

* * *

Below is a list of entries, each paired with its recorded protein stability index value.
assayName: protein stability index of a GFP-peptide fusion (GPS, HEK-293T) (PSI 1-6); higher = more stable
experimentalConditions: treatment: MLN4924 1 uM, 8 h; c terminus: a fixed tail appended
API note: the answer field is a bare number with no unit suffix.

>>> print(df.to_string())
                macromoleculesequence  reportedvalue
0    RDLAARWKKLVLVDRNTRPGPQDP [ELOA2]           3.49
1     LPVPPTPGLLSLATTSASDSLKPE [TFE3]           5.04
2   GFFDFETFDVDEYEHYERVENGDF [CDC14A]           4.49
3     AEQLRIELNAEKFKNSLLQKELKK [WEE1]           3.94
4  TSASLLNAGLSHTEYQIVTDPGDV [SLC2A12]           4.76
5    MSGRSKRESRGSTRGKRESESRGS [USP39]              5
6     TMKESLTTREIRRQEAIYEMSRGE [NET1]           4.68
7   KSGAIMSALSDTEIQREIGISNAL [PPFIA4]           4.13
8     MGEPAGVAGTMESPFSPGLFHRLD [ATF6]           3.79
9     SDQVKISEEALRADGFGDNPFYHC [SAT2]           4.25

Consider the additional sequence presented here.
Quick one: protein stability index for GPTGVTMTSNPITWGQIKKTTQEA [CDK11A] ?
4.51

* * *

We begin with a simple list: items and their reported protein stability index.
assayName: protein stability index of a GFP-peptide fusion (GPS, HEK-293T) (PSI 1-6); higher = more stable
experimentalConditions: treatment: MLN4924 1 uM, 8 h; c terminus: a fixed tail appended
Reply with the value as a number alone.

>>> print(df.to_string())
                 macromoleculesequence              readoutname  reportedvalue
0      IVYHPYRPLLQYVQDMGQEDMLLP [CCNC]  protein stability index           1.93
1  PNLSPHAPWNYHYHCPGSPDHQVP [TRAF3IP2]  protein stability index           3.54
2      AQNACSEHGATLAVIDSEKDMNFL [CD69]  protein stability index           4.78

Given the sequence TATFAVHFMVLSKSGPGDGFFSSA [POMT2] , what is its reported protein stability index?
2.93

Fill blank: measured protein stability index of the sequence MEKKSKPKNSVWKRLKSPFRKKKD [RIT1] is ____.
3.88

Please report the recorded protein stability index for EPGAGLGIGDMAFEGDMGAAGGDG [PSD2] .
5.61

* * *

assayName: protein stability index of a GFP-peptide fusion (GPS, HEK-293T) (PSI 1-6); higher = more stable
experimentalConditions: treatment: DMSO; c terminus: a fixed tail appended
readoutName: protein stability index
Give your answer as a number; write no unit.

In [3]: df
Out[3]:
                macromoleculesequence              readoutname  reportedvalue
0    STFSSGPSDKMKWCLRVNPKGLDD [SPOPL]  protein stability index           2.73
1  EKDERQRTTKPMAQRSAHCSRPSG [CSNK1G1]  protein stability index           5.12
2   GMEGLLGTLVQLLGSDDINVVTCA [CTNNB1]  protein stability index           2.34
3     QNHGQHLILSREASWAKPHYEFNL [LCOR]  protein stability index           2.28
4    NKTDVVLILELVSGGELFDFLAEK [DAPK3]  protein stability index           2.55
5    EKAFIAHFQDNLHSVNRDLNELER [MED27]  protein stability index           3.85
6     TGLSGGKRPSQEEDTQSIGPKVQR [CRY1]  protein stability index              5
7   THSSLSQELQARLQTVTREKEELL [CCDC89]  protein stability index           4.89

Next:
// lookup protein stability index for FPFSLLGLLALAIGLWGLAVKGSL [TSPAN10]
3.33

* * *

Reported values of protein stability index for individual entries
assayName: protein stability index of a GFP-peptide fusion (GPS, HEK-293T) (PSI 1-6); higher = more stable
experimentalConditions: treatment: MLN4924 1 uM, 8 h; c terminus: a fixed tail appended
Hey, just send me the number, nothing else.

Please review the entries below; each comes with its answer.
>>> df
               macromoleculesequence              readoutname  reportedvalue
0   STFSSGPSDKMKWCLRVNPKGLDD [SPOPL]  protein stability index              3
1   LFCEVSVVQDSVNISGHTNTNTLK [SPOPL]  protein stability index           2.84
2     TDLKTLCCEFLEGCIAAENCIGIR [GAN]  protein stability index           2.48
3  ASSASEPQGLFVEALSVPLSLCVS [CLPTM1]  protein stability index           2.25

Please give the measured protein stability index for this sequence: AVTPAGVVNKYQINGLQAWLLTHL [DHCR7]
2.15

Reported protein stability index for LETEIEALKEELLFMKKNHEEEVK [KRT18] : what is it?
4.98

# protein stability index lookup, item NGDITSFLLSVYAPGSSVEYQCQN [CFHR2]
2.09

* * *

assayName: protein stability index of a GFP-peptide fusion (GPS, HEK-293T) (PSI 1-6); higher = more stable
experimentalConditions: treatment: DMSO; c terminus: a fixed tail appended
readoutName: protein stability index
Lab note: jot the number down without any unit.

Below are worked cases with known answers.
                macromoleculesequence  reportedvalue
0    FTQNQIEVLENVFRVNCYPGIDIR [HESX1]           2.42
1    MLLPQLCWLPLLAGLLPPVPAQKF [SMOC2]           3.51
2     EKEKAEIEAKEACDWLRATGFPQY [DLC1]           4.02
3   SFGGEWSAPDTMKRYSMYLTPKGG [TRIM29]           3.09
4  TSHRRVTDVRGLEEFLSAMQSARG [PLEKHN1]           3.33

Given the sequence FSVVRRCMKIPTGQEYAAKIINTK [CAMK2D] , what is its reported protein stability index?
2.3

I would be grateful if you could share the reported protein stability index for QERQMLQALKFLPVPSAPVIDLAE [FSD1] .
3.47

Requested field: protein stability index. Item: ELDRWLYHLEKQTALLGGPRRCHS [PLEKHN1]
2.24

Query (sequence): SKIDHYVLEYRRTNFEGPPRLKED [FSD1] ; field requested: protein stability index
3.52

* * *

Attribute: protein stability index
assayName: protein stability index of a GFP-peptide fusion (GPS, HEK-293T) (PSI 1-6); higher = more stable
experimentalConditions: treatment: DMSO; c terminus: a fixed tail appended
Give the figure by itself; no unit, no explanation.

>>> df
               macromoleculesequence  reportedvalue
0   ESAAFSQGSRSGVSGGSRSLNMSR [PHTF1]           4.44
1   CVLVPRADLRLGGQPAPPQLLLGR [SMAD6]            2.5
2  EKNLLLQNQVDELERKFRCQQEQL [LRRC45]           4.27
3    LLDADWSINAGSWMWLSCSSFFQQ [CRY1]           2.67
4  ERLQLEYVDVVFANRPDPNTPMEE [KCNAB2]            4.7

Requested read-out: protein stability index. Entry: VGTGTFGRVHLVKEKTAKHFFALK [PRKX]
2.46

GET /values?readout=protein stability index&item= FALLADKAAQQGKQEENDVVEKLN [SNX8]
5.38

Which protein stability index reading was recorded for the sequence VLALGLRTDVGITHQHWQQFEPQL [RSAD1] ?
2.23

Which protein stability index value belongs to FLWGPRALIETSYVKVLHHMVKIS [MAGEA6] ?
2.14

# protein stability index lookup, item TLLAVGCNDGRIVIWDFLTRGIAK [RBBP5]
2.65

Consider the sequence shown here: LKILKPSIPLERIHFDSYITCVSG [FBXO33] What is its recorded protein stability index?
2.22

# input sequence: KSRLSSVSVTYCSVSQDFPGSNLN [ETS2] ; wanted: its protein stability index
2.62

Param item = VGQSLRIKEQEVCKLQEQLEATVK [SASS6] ; retrieve measured protein stability index.
4.15
